// reported GI50 per item
- Tested on: T47D
- Test Summary: NCI tumour cell line growth inhibition, 48 h
Activity calls are given as the source filed them. Rule as the data show it: active = GI50 up to about 1.1 µM and inactive = higher.

[
  {
    "Molecule": "Cc1ccccc1/N=N/c1cc(C)c(/N=N/c2c(O)ccc3ccccc23)cc1C",
    "GI50": "> 100 µM (inactive)"
  },
  {
    "Molecule": "Cn1c(-c2cccs2)cc(-c2ccsc2)c1-c1ccsc1",
    "GI50": "1.81 µM (inactive)"
  },
  {
    "Molecule": "CCCCCCC(C)CC(CCCCCC)NCCOC(=O)c1ccc([N+](=O)[O-])cc1 (stereo not drawn)",
    "GI50": "10.7 µM (inactive)"
  }
]

* * *

- Tested on: OVCAR-8
- Test Summary: NCI tumour cell line growth inhibition, 48 h
Activity calls are given as the source filed them. Rule as the data show it: active = GI50 up to about 1.1 µM and inactive = higher.
Possible outcomes: active, inactive

[
  {
    "Compound": "Nc1nc(SCCC/C=C/I)nc2c1ncn2C1OC(CO)C(O)C1O (configuration not stated)",
    "Classification": "inactive"
  },
  {
    "Compound": "Cc1c2ccnc(-c3ccccc3)c2cc2c1[nH]c1ccccc12",
    "Classification": "inactive"
  },
  {
    "Compound": "COC(=O)c1c(C)ccc2c(O)c3c(cc12)C(=O)c1c2c(cc(O)c1C3=O)C1(C)OC(C)(O2)C(O)C(N(C)C)C1O (configuration not stated)",
    "Classification": "active"
  },
  {
    "Compound": "Cc1cc(S(=O)(=O)O)c(NC(=O)C(=O)Cc2cc(=O)oc3cc(O)ccc23)cc1Cl",
    "Classification": "inactive"
  },
  {
    "Compound": "COC(=O)[C@@H]1Cc2c([nH]c3ccccc23)[C@H](c2ccccc2)N1",
    "Classification": "inactive"
  },
  {
    "Compound": "COC(=O)C(=Cc1cc(OC)c(OC)c(OC)c1-c1cc2c(cc1C1(C)OCCS1)OCO2)C(=O)OC (configuration not stated)",
    "Classification": "inactive"
  },
  {
    "Compound": "CC1OC(CC(=O)O)CC2=C1C(=O)c1c(O)cccc1C2=O (configuration not stated) [NANAOMYCIN]",
    "Classification": "active"
  },
  {
    "Compound": "CCOC(=O)/C(=N/Nc1ccc(Cl)cc1)N1C(=S)N(C)N=C(C)C=C1S",
    "Classification": "inactive"
  },
  {
    "Compound": "COc1ccc(Oc2cccc(/C=C3/C(=O)Nc4ccccc43)c2)cc1",
    "Classification": "inactive"
  },
  {
    "Compound": "O=C1C2=C(c3ccccc31)C(c1ccc(Cl)cc1)NC(S)=N2 (configuration not stated)",
    "Classification": "inactive"
  },
  {
    "Compound": "N#C/N=C(/N)NCN/C(N)=N\\C#N",
    "Classification": "inactive"
  },
  {
    "Compound": "NCCN(CCN)/[N+]([O-])=N/O",
    "Classification": "inactive"
  },
  {
    "Compound": "COc1ccc2c(c1)/C(=C/CCN(C)C)c1ccccc1S2",
    "Classification": "inactive"
  },
  {
    "Compound": "CCNC(=O)OCC1C2=C(C(=O)C(C)=C(N)C2=O)N2CC3C(N3C)C12OC (configuration not stated)",
    "Classification": "inactive"
  },
  {
    "Compound": "Cc1sc(Nc2ccc(Nc3nc(-c4ccccc4)c(C)s3)cc2)nc1-c1ccccc1",
    "Classification": "inactive"
  },
  {
    "Compound": "CC1C(O)C2(Oc3cc4c(c5c3[C@@H](CC5O)[C@H]2C)CCC2Cc3nc5c(nc3C[C@@]42C)CC2CCC3C4=C[C@H]6O[C@@]7(O[C@@](C)(CO)C[C@@H]7O)C(C)[C@@]6(O)[C@]4(C)[C@@H](O)CC3[C@]2(C)C5)OC1(C)C (some centres not stated)",
    "Classification": "active"
  },
  {
    "Compound": "O=C(O)C(O)C(O)C(O)C(O)CO.[Ba+2] (configuration not stated)",
    "Classification": "inactive"
  },
  {
    "Compound": "CCCCCCCCCCCCCC[S+](C)C",
    "Classification": "inactive"
  },
  {
    "Compound": "COc1ccc(C)cc1NC(=S)N/N=C/c1ccco1",
    "Classification": "inactive"
  },
  {
    "Compound": "O=c1c(Cc2ccc(Cl)cc2)nnc2sc(-c3ccc([N+](=O)[O-])cc3)nn12",
    "Classification": "inactive"
  },
  {
    "Compound": "CCCCCCCCCCC(C(=O)O)C1(C(=O)O)CCC(=O)O1 (configuration not stated)",
    "Classification": "inactive"
  },
  {
    "Compound": "CON(C)C(=O)CNC(=O)OCC1c2ccccc2-c2ccccc21",
    "Classification": "inactive"
  },
  {
    "Compound": "C[C@H](C/C=C/C(C)(C)O)[C@H]1CC[C@@]2(C)[C@@H]3CC[C@H]4C(C)(C)[C@@H](O)CC[C@@]45C[C@@]35CC[C@]12C",
    "Classification": "inactive"
  },
  {
    "Compound": "CO[C@@H]1[C@@H](OC2OC(C)C(OC3CC(C)(O)C(OC(=O)CC(C)C)C(C)O3)C(N(C)C)C2O)[C@@H](CC=O)C[C@@H](C)C(=O)/C=C/C2O[C@H]2C[C@@H](C)OC(=O)C[C@H]1OC(C)=O (some centres not stated)",
    "Classification": "inactive"
  },
  {
    "Compound": "[N-]=[N+]=CC(=O)c1ccccc1C#CCCc1ccccc1",
    "Classification": "inactive"
  },
  {
    "Compound": "O=C(/C=C/c1cccs1)c1ccc([N+](=O)[O-])cc1",
    "Classification": "inactive"
  },
  {
    "Compound": "N#Cc1cc2c(cc1C#N)/C(=N\\c1cccc(N)n1)N/C2=N\\c1cccc(N)n1",
    "Classification": "inactive"
  },
  {
    "Compound": "C/C(CC(=O)Nc1ccc([N+](=O)[O-])cc1)=N/N=C(N)N",
    "Classification": "inactive"
  },
  {
    "Compound": "CN1COc2c(n(C)c(=O)[nH]c2=O)C1",
    "Classification": "inactive"
  },
  {
    "Compound": "Cc1cc(C)n(C2=NS(=O)(=O)c3ccccc3N2C)n1",
    "Classification": "inactive"
  },
  {
    "Compound": "COc1ccc(C23C(=O)c4ccccc4N2O[C@H]2C(=O)N(c4ccccc4)C(=O)[C@H]23)cc1 (some centres not stated)",
    "Classification": "inactive"
  },
  {
    "Compound": "CCOC(=O)c1cc(C2CCN(CC(C)CC)C2=S)c(-c2cc(C)no2)[nH]1 (configuration not stated)",
    "Classification": "inactive"
  },
  {
    "Compound": "CCOC(=O)CCCO",
    "Classification": "inactive"
  },
  {
    "Compound": "NC12CC3CC(C1)CC(C(=O)O)(C3)C2",
    "Classification": "inactive"
  },
  {
    "Compound": "CC1CN=C(N(C(=O)Nc2ccccc2)c2ccc(Cl)c(Cl)c2)S1 (configuration not stated)",
    "Classification": "inactive"
  },
  {
    "Compound": "Cc1ccc(-c2n[nH]c(=O)n2/N=C\\c2ccccc2O)cc1",
    "Classification": "inactive"
  },
  {
    "Compound": "c1ccc(C[n+]2ccc3c(c2)CCCC3)cc1",
    "Classification": "inactive"
  }
]
